These measurements were taken from PubChem BioAssay (NCI).

tested on: 786-0 renal; experiment: NCI-60 one-dose screen, 48 h (100 = growth as untreated, 0 = no growth, -100 = all killed); settings: 10 µM unless noted
About 83,000 compounds went through this panel and 20% of them were active in at least one assay; those are over-represented in the sample as a whole.
# key: entry, value: growth
Reply with just the number (in %).

| chemical-smiles | output-unit | growth |
| --- | --- | --- |
| CN(C)CCn1c2ccc(N)cc2c2nc3ccccc3nc21 | % | 35.6 |

*Q* Which growth is listed for `CC(=O)Oc1ccc(CCN2C(=O)CSC2=S)cc1` ?
*A* 79.7

*Q* Which growth is listed for `COC(=O)c1c(C(=O)OC)c2n(CC(=O)Nc3cccc4cccnc34)c3ccccc3n2c1C(=O)c1ccc(C)cc1` ?
*A* 101

----------
system: HCC-2998 colon; assay: NCI-60 one-dose screen, 48 h; details: 10 µM unless noted
This is part of a sample that, as a whole, favours compounds with a hit. Of some 83,000 tested, about 20% had one in any assay. Calls of active or inactive are those of the source. Rule for the calls: active = growth percent below 10; inactive = the rest.
Can you answer with just one of these options? true (1) (active), false (0) (inactive)

*Q* Hi team, can someone confirm the assay call for `N#Cc1c(NC(=O)c2ccc(F)c(Cl)c2)sc2c1CCC(=O)C2` ?
*A* false (0)

----------
system: NCI/ADR-RES ovarian; experiment: NCI-60 one-dose screen, 48 h (100 = growth as untreated, 0 = no growth, -100 = all killed); conditions: 10 µM unless noted
About 83,000 compounds went through this panel and 20% of them were active in at least one assay; those are over-represented in the sample as a whole.
// assign Met if growth falls strictly below 10%, else Not met (ties count as Not met)

Solved entries (count: 8):
| compound | assigned-class |
| --- | --- |
| O=S(=O)(Nc1ccc(I)c(Cl)c1)c1ccc(-c2cnc(C3CC3)o2)cc1 | Not met |
| O=C(Nc1cc(Cl)cc(Cl)c1)Nc1ccc2oc(=O)ccc2c1 | Not met |
| c1cncc(-c2cn3nc(-c4c[nH]c5ccccc45)sc3n2)c1 | Not met |
| O=C(O)c1ccc(-n2cc(CNc3ccc(Cl)cc3)c(-c3ccc(F)cc3)n2)cc1 | Not met |
| CCN1C(=O)N(CC)C2SC(N/N=C/c3ccccc3)=NC21 (centres undefined) | Met |
| O=c1cc(-c2ccccc2)nc2sc(-c3c[nH]c4ccc(F)cc34)nn12 | Not met |
| CNC(=O)c1cc(N2CCc3cc(NC(=O)Nc4ccc(Cl)c(Cl)c4)ccc32)ccn1 | Not met |
| Oc1ccc(CSc2nnc(-c3ccccc3)o2)c2cccnc12 | Not met |

Then this compound:
*Q* I wonder whether `N=c1c2cc(-c3ccccc3)oc2ncn1/N=C/c1ccccc1` has growth below 10%. Can you tell?
*A* Not met

----------
tested on: BT-549 breast; test: NCI-60 one-dose screen, 48 h (100 = growth as untreated, 0 = no growth, -100 = all killed); details: 10 µM unless noted
The panel holds about 83,000 compounds, 20% with a hit somewhere; the sample as a whole holds those more often. Calls of active or inactive are those of the source. How the source made its calls: active means growth percent below 10; inactive means the rest.
# key: entry, value: growth

*Q* Which growth is listed for `N/C(=N\OC(=O)CSc1nc2ccccc2s1)c1ccc2ccccc2c1` ?
*A* 100% (inactive)

*Q* Which growth is listed for NC(N)=NS(=O)(=O)c1ccc(N=NC2C(=O)NN(c3ccccc3)C2=O)cc1 (stereo unspecified) ?
*A* 107% (inactive)

----------
system: MDA-MB-435 melanoma; assay: NCI-60 one-dose screen, 48 h (100 = growth as untreated, 0 = no growth, -100 = all killed); settings: 10 µM unless noted
Compounds without any hit were thinned out: in the full panel of roughly 83,000, 20% have a hit.
measured-quantity: growth (%)
Reply with just the number (in %).

Reference set, count: 8
| compound | measured-quantity | assay-value |
| --- | --- | --- |
| N/C(=N\c1nc2ccc([N+](=O)[O-])cc2s1)C(Cl)(Cl)Cl | growth | 83.6 |
| CCC(CC)N1C(=O)/C(=c2\sc3n(c2=O)C2C(NN=3)N(CC)C(=O)N2CC)c2ccccc21 (stereo unspecified) | growth | -8.32 |
| Oc1ccc(CSc2nnc(-c3ccc(Cl)cc3)o2)c2cccnc12 | growth | 22.3 |
| O=c1[nH]c2cc(Cl)ccc2n1C1CCN(c2ccc3nnc(Cl)n3n2)CC1 | growth | 98.4 |
| O=c1oc2ccc(-c3ccc(F)cc3F)cc2c(=O)n1-c1cccc(C(F)(F)F)c1 | growth | 6.94 |
| CC(=O)Oc1ccc(CCN2C(=O)CSC2=S)cc1 | growth | 69.2 |
| O=C1[C@@H]2Cc3c([nH]c4ccccc34)[C@H](c3c(Cl)cccc3Cl)N2C(=O)CN1C1CCN(Cc2c(F)cccc2F)CC1 | growth | 85.1 |
| COc1ccc(NC(=O)[C@H](C)NC(=O)OC(C)(C)C)cc1C(=O)Nc1cccc(-c2cc(=O)c3c(OC)c(OC)c(OC)cc3o2)c1 | growth | 7.35 |

*Q* Which growth is listed for `COc1cc2c3c(n(CCCNC4CCCCC4)c(=O)c2cc1OC)-c1cc2c(cc1C3=O)OCO2` ?
*A* 102

*Q* Which growth is listed for `ClC(Cl)c1nc(-c2cccs2)n2nc(-c3ccccc3)cc2n1` ?
*A* -9.17

*Q* Which growth is listed for CCN(CC)CCCC(C)NCC(=O)NC(c1ccc2c(c1)OCO2)c1cc(Cl)c2cccnc2c1O (stereo unspecified) ?
*A* 8.56

----------
system: HOP-92 NSCLC; experiment: NCI-60 one-dose screen, 48 h (100 = growth as untreated, 0 = no growth, -100 = all killed); conditions: 10 µM unless noted
This is part of a sample that, as a whole, favours compounds with a hit. Of some 83,000 tested, about 20% had one in any assay.
measured-quantity: growth (%)
Reply with just the number (in %).

Reference set, count: 2
| chemical-smiles | output-unit | growth |
| --- | --- | --- |
| COc1cc(-c2noc(C[C@@H](NC(=O)OCc3ccccc3)C(C)C)n2)cc(OC)c1OC | % | 88.3 |
| C#CCOc1ccc(/C=N/Nc2nc(-c3cc4cc(Br)cc(Br)c4oc3=O)cs2)cc1 | % | 89.3 |

*Q* Which growth is listed for `COc1ccc(/C=N/Nc2nc(N/N=C/c3ccc(OC)cc3O)nc(N3CCOCC3)n2)c(O)c1` ?
*A* 88.6

*Q* Which growth is listed for `N=c1c2cc(-c3ccccc3)oc2ncn1/N=C/c1ccccc1` ?
*A* 92

----------
test system: MCF7 breast; test: NCI-60 one-dose screen, 48 h; conditions: 10 µM unless noted
This is part of a sample that, as a whole, favours compounds with a hit. Of some 83,000 tested, about 20% had one in any assay. The source made the active and inactive calls. Rule for the calls: active = growth percent below 10; inactive = the rest.
Can you answer with just one of these options? true (1) for active, false (0) for inactive

Solved entries (count: 3):
| compound | target-system | assigned-class |
| --- | --- | --- |
| C=CCn1c(SCC(=O)Nc2cccc(C(=O)/C=C/c3ccccc3)c2)nc2ccccc2c1=O | MCF7 breast | false (0) |
| COc1cc(/C=C/C(=O)c2ccc(NC(=O)COc3cccc4cccnc34)cc2)cc(OC)c1OC | MCF7 breast | false (0) |
| COc1ccccc1/C=C/C(=O)c1nnn(-c2ccc(C(=O)O)cc2)c1C | MCF7 breast | false (0) |

*Q* Hi team, can someone confirm the assay call for `CCCCCCNC(=O)Oc1ccc(/C(=C(\C)c2ccc(Cl)cc2)c2ccc(OCCN(C)C)cc2)cc1` ?
*A* false (0)

*Q* Hi team, can someone confirm the assay call for `C#C[C@]1(O)CC[C@H]2[C@@H]3CC=C4c5sc(Nc6nc(C)cc(OC)n6)nc5CC[C@]4(C)[C@H]3CC[C@@]21C` ?
*A* true (1)

*Q* Hi team, can someone confirm the assay call for `Oc1ccc(CSc2nnc(-c3ccncc3)o2)c2cccnc12` ?
*A* true (1)

*Q* Hi team, can someone confirm the assay call for `NCCN1CCN(c2nc(-c3ccccc3)nc3nc(-c4ccccc4)oc23)CC1` ?
*A* true (1)

*Q* Hi team, can someone confirm the assay call for C/C(=N\NC(=O)CSc1nc2sc3c(c2c(=O)n1-c1ccccc1)CCC(C)C3)c1ccc(Cl)cc1 (configuration not stated) ?
*A* false (0)

*Q* Hi team, can someone confirm the assay call for `C=C(C)C(=O)O[C@H]1C[C@@]2(C)OC(=CC2=O)[C@H](C)[C@H](O)[C@H]2OC(=O)C(=C)[C@@H]21` ?
*A* false (0)

*Q* Hi team, can someone confirm the assay call for C[C@@H]1C[C@H]2C(=O)OCC(NC(=O)[C@H](Cc3cc(F)cc(F)c3)NC(=O)Nc3ccc(Cl)cc3F)C(=O)N3CCC[C@H]3C(=O)N3CCCC[C@H]3C(=O)N[C@@H](C)C(=O)N2C1 (some centres not stated) ?
*A* false (0)

*Q* Hi team, can someone confirm the assay call for CS(=O)c1nccc(-c2c(-c3ccc(F)c(OCCc4ccc(F)cc4)c3)nc3sccn23)n1 (configuration not stated) ?
*A* true (1)

*Q* Hi team, can someone confirm the assay call for `COc1ccc(NC(=O)Cn2cc(CN3C(=O)c4ccc([N+](=O)[O-])cc4C3=O)nn2)cc1` ?
*A* false (0)

*Q* Hi team, can someone confirm the assay call for `C/C(=C(/c1ccc(O)cc1)c1ccc(OCCN2CCCC2)cc1)c1ccc(Cl)cc1` ?
*A* true (1)

*Q* Hi team, can someone confirm the assay call for `COc1cc(CNC(=O)/C=C/c2ccccc2)ccc1OCC(=O)NO` ?
*A* false (0)

*Q* Hi team, can someone confirm the assay call for `C/C(Cc1ccc(Cl)cc1)=C(/c1ccccc1)c1ccc(OCCN)cc1` ?
*A* false (0)

*Q* Hi team, can someone confirm the assay call for `C#C[C@]1(O)CC[C@H]2[C@@H]3CC=C4c5sc(-c6ccc(OC)cc6)nc5CC[C@]4(C)[C@H]3CC[C@@]21C` ?
*A* false (0)
